Biological target: T1, mouse matriptase-2 ECD protein his tag (mouse, UniProt Q9DBI0 80-811)
T1 sequence: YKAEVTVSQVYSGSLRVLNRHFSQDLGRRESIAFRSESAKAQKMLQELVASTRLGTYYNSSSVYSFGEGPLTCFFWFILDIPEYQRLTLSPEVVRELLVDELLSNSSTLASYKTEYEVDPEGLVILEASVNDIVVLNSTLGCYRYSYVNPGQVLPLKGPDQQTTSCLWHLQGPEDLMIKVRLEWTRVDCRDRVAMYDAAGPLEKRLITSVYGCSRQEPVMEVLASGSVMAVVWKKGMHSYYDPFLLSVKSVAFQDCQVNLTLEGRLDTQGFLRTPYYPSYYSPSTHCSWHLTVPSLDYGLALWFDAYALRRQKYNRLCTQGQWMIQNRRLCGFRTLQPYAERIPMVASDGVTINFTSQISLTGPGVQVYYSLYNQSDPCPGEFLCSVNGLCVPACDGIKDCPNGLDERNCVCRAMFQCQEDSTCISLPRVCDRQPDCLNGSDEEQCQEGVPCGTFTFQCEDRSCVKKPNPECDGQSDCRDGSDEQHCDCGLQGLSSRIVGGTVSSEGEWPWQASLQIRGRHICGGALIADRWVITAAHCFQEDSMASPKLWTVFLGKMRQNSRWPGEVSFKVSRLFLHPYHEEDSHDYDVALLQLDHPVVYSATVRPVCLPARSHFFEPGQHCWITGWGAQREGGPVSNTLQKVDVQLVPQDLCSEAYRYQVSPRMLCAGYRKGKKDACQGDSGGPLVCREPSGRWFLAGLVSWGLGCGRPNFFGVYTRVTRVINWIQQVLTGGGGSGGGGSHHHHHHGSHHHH
Test: cell-based or functional assay
Label scheme for Inhibition enzymatic activity mouse MTP2 protein (IC50): lower than 6 nM is 0, 6 nM and above is 1.

Q: Reported Inhibition enzymatic activity mouse MTP2 protein (IC50) reaches at least 6 nM for NORI-014 (antibody, human IgG4 S228P, lambda, V domains shown, human IgG4PE, lambda) VH: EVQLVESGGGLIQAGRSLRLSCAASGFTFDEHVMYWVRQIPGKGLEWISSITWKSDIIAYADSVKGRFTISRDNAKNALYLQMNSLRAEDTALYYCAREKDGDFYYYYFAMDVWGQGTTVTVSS VL: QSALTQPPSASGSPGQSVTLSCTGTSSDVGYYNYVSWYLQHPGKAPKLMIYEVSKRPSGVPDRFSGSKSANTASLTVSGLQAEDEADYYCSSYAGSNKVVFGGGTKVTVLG ?
A: 1

Q: And what about the binder NORI-024 (antibody, human IgG4 S228P, lambda, V domains shown) VH: QVQLVQSGPELKKPGASVKVSCKASGYTFTNFGISWVRQAPGQGLEWMGWISAYSGFTNFAQKFQGRVSMTTDTSTSTVYMELKSLRSDDTAVYYCAREGYSNYEDWFDPWGQGTLVTVSS VL: SYELTQPPSVSVSPGQTARITCSGDALPKKYAYWYQQKSGQAPVLVIYEDSKRPSGIPERISGSNSGTMATLTISGAQVEDEADYYCYSTDSSGNHRVFGGGTKLTVLG ?
A: 1

Q: And what about the binder NORI-020 (antibody, human IgG4 S228P, lambda, V domains shown) VH: QLQLQESGPGLVKPAETLSLMCTVSGDSISSSHYFWGWIRQPPGKGLEWIGSMYYSGSTYYNPSLKSRVTISVDTSNNQFSLKLRSVTAADTAVYYCVRHNNWGLDNYFDYWGQGTLVTVSS VL: SYELTQPPSVSVSPGQTARITCSADALPDQYAYWYQQKPGQAPLLVIYKDSERPSGIPERFSGSSSGTIVTLTIRGVQAEDEADYYCQSADSSGSYAVFGGGTKLTVLG ?
A: 0

Q: And what about the binder NORI-021 (antibody, human IgG4 S228P, lambda, V domains shown) VH: QVQLVESGGGLVKPGGSLRLSCAAFGFTFSDYYMGWIRQAPGKGLEWVSHISSSGRTRYYADSVKGRFTISRDNAKNALYLQMDSLRAEDTAVFYCARAQLRYFDWLDYWGQGTLVTVSS VL: QSVLTQPPSVSAAPGQKVTISCSGSGSNIGNNYVSWYQQVPGTAPKLLIYDNNKRPSGIPDRFSGSKSGTSATLGITGLQTGDEADYYCGTWDSSLSAGVFGGGTKLTVLG ?
A: 0

Q: And what about the binder NORI-015 (antibody, human IgG4 S228P, lambda, V domains shown) VH: EVQLVESGGGLIQAGRSLRLSCAASGFTFDEHVIYWVRQIPGKGLEWISSISWKSDIIAYADSVKGRFTISRDNAKNALYLQMNSLRAEDTALYYCAREKDGDFYYYYFAMDVWGQGTTVTVSS VL: QSALTQPPSASGSPGQSVTISCTGTSSNVGYYNYVSWYQQHPGKAPKLMIYEVNKRPSGVPDRFSGSKSANTASLTVSGLQADDEADYYCSSYAGSNKVVFGGGTKLTVLG ?
A: 0

Q: And what about the binder NORI-017 (antibody, human IgG4 S228P, lambda, V domains shown) VH: QVHLVESGGAVVQPGRSLRLSCAASGFTFSNFDMHWVRQTPGKGLEWVTIIRYDETNIYYTESVKGRFTTSRDNSKNTLYLQMNSLRVEDTAVYYCARGWTGSYVFDYWGQGALVTVSS VL: QSVLTQPPSVSEAPRQRVTISCSGGSSNIGNNAVNWYQQVPGKAPKLLIHYDDLLPSGVSDRFSGSKSGTSASLAISGLQSEDEADYYCAAWDDSLNGVVFGGGTKLTVLG ?
A: 0

Data provenance is patent US20230025129A1.
